The compounds listed here are annotated with their growth inhibition by drug plus 177Lu-lilotomab satetraxetan.
# Tested on: RIVA
# procedureText: growth inhibition by drug plus 177Lu-lilotomab satetraxetan (1 - RLU/untreated control) (fraction); higher = stronger inhibition
# experimentalConditions: 100 nM; time (day): 3; 177Lu-lilotomab satetraxetan 0.5 ug/ml
Counter-ions that a name gives are not always drawn.
readoutName: growth inhibition by drug plus 177Lu-lilotomab satetraxetan

compound="CN(Cc1cnc2nc(N)nc(N)c2n1)c1ccc(C(=O)N[C@@H](CCC(=O)O)C(=O)O)cc1 [Abitrexate (Methotrexate)]" experimentalvalue=0.452
compound=CN(C)c1ccccc1CN1CCCN(Cc2ccccc2N(C)C)C1c1ccncc1 experimentalvalue=0.416
compound="O=C(O)CCCc1ccccc1 [4-Phenylbutyrate]" experimentalvalue=0.419
compound=CCn1c(-c2nonc2N)nc2cnc(Oc3cccc(NC(=O)c4ccc(OCCN5CCOCC5)cc4)c3)cc21 experimentalvalue=0.439
compound=CN(C)Cc1c(C(=O)NCCOc2ccc(C(=O)NO)cc2)oc2ccccc12 experimentalvalue=0.926
compound=Cc1ccc(-c2csc3ncnc(SCCC(=O)O)c23)cc1 experimentalvalue=0.365
compound="C[N+](C)([O-])CCNc1ccc(NCC[N+](C)(C)[O-])c2c1C(=O)c1c(O)ccc(O)c1C2=O [Banoxantrone dihydrochloride]" experimentalvalue=0.446
compound="CC(=O)[C@]1(O)Cc2c(O)c3c(c(O)c2[C@@H](O[C@H]2C[C@H](N)[C@H](O)[C@H](C)O2)C1)C(=O)c1ccccc1C3=O [Idarubicin HCl]" experimentalvalue=0.831
compound="CC[C@@]1(O)C(=O)OCc2c1cc1n(c2=O)Cc2cc3c(CN(C)C)c(O)ccc3nc2-1 [Topotecan HCl]" experimentalvalue=0.814
compound=O=C1NC(=O)/C(=C\c2cccc(C(F)(F)F)c2)S1 experimentalvalue=0.391
compound=COc1ccc(-c2oc3cc(OC)ccc3c2C(=O)c2ccc(C#N)cc2)cc1 experimentalvalue=0.391
compound=Cc1ccc(Nc2nccc(N(C)c3ccc4c(C)n(C)nc4c3)n2)cc1S(N)(=O)=O experimentalvalue=0.418
compound=COC(=O)c1ccc2c(C(=Nc3ccc(N(C)C(=O)CN4CCN(C)CC4)cc3)c3ccccc3)c(O)[nH]c2c1 experimentalvalue=0.251
compound="O=C(CCc1ccc(O)cc1)c1c(O)cc(O)cc1O [Phloretin (Dihydronaringenin)]" experimentalvalue=0.427
compound=CCCCCCCc1ccc(CCc2cccc(O)c2C(=O)O)cc1 experimentalvalue=0.545
compound=CC(C)C[C@H](NC(=O)[C@H](Cc1ccccc1)NC(=O)c1cnccn1)B(O)O experimentalvalue=0.989
compound=Cc1ccc([C@@H]2O[C@H](CO)[C@@H](O)[C@H](O)[C@H]2O)cc1Cc1ccc(-c2ccc(F)cc2)s1 experimentalvalue=0.383
